Assay: total protein half-life in vivo (active degradation + dilution); higher = more stable protein
Details: wild type E. coli NCM3722; growth: N-lim chemostat; doubling time 12 h
Listing of entries alongside the reported total protein half-life in vivo.
Field: numeric (h). Do not append units.

- sequenceInput: "MTHFSQQDNFSVAARVLGALFYYAPESAEAAPLVAVLTSDGWETQWPLPEASLAPLVTAFQTQCEETHAQAWQRLFVGPWALPSPPWGSVWLDRESVLFGDSTLALRQWMREKGIQFEMKQNEPEDHFGSLLLMAAWLAENGRQTECEELLAWHLFPWSTRFLDVFIEKAEHPFYRALGELARLTLAQWQSQLLIPVAVKPLFR"
  readoutUnit: "h"
  total protein half-life in vivo: 7.72
- sequenceInput: "MEFFKKTALAALVMGFSGAALALPNITILATGGTIAGGGDSATKSNYTVGKVGVENLVNAVPQLKDIANVKGEQVVNIGSQDMNDNVWLTLAKKINTDCDKTDGFVITHGTDTMEETAYFLDLTVKCDKPVVMVGAMRPSTSMSADGPFNLYNAVVTAADKASANRGVLVVMNDTVLDGRDVTKTNTTDVATFKSVNYGPLGYIHNGKIDYQRTPARKHTSDTPFDVSKLNELPKVGIVYNYANASDLPAKALVDAGYDGIVSAGVGNGNLYKSVFDTLATAAKTGTAVVRSSRVPTGATTQDAEVDDAKYGFVASGTLNPQKARVLLQLALTQTKDPQQIQQIFNQY"
  readoutUnit: "h"
  total protein half-life in vivo: 12.3

Okay, next one:
Can you look up the measured total protein half-life in vivo of MKDKVYKRPVSILVVIYAQDTKRVLMLQRRDDPDFWQSVTGSVEEGETAPQAAMREVKEEVTIDVVAEQLTLIDCQRTVEFEIFSHLRHRYAPGVTRNTESWFCLALPHERQIVFTEHLAYKWLDAPAAAALTKSWSNRQAIEQFVINAA [P0AFC0] for me?
3.45

---

Experiment: total protein half-life in vivo (active degradation + dilution); higher = more stable protein
Details: wild type E. coli NCM3722; growth: C-lim chemostat; doubling time 12 h
measuredProperty: total protein half-life in vivo (h)
Field: numeric (h). Do not append units.

- sequenceInput: "MAYSKIRQPKLSDVIEQQLEFLILEGTLRPGEKLPPERELAKQFDVSRPSLREAIQRLEAKGLLLRRQGGGTFVQSSLWQSFSDPLVELLSDHPESQYDLLETRHALEGIAAYYAALRSTDEDKERIRELHHAIELAQQSGDLDAESNAVLQYQIAVTEAAHNVVLLHLLRCMEPMLAQNVRQNFELLYSRREMLPLVSSHRTRIFEAIMAGKPEEAREASHRHLAFIEEILLDRSREESRRERSLRRLEQRKN [P0ACL9]"
  total protein half-life in vivo / h: 9.49
- sequenceInput: "MAGNTIGQLFRVTTFGESHGLALGCIVDGVPPGIPLTEADLQHDLDRRRPGTSRYTTQRREPDQVKILSGVFEGVTTGTSIGLLIENTDQRSQDYSAIKDVFRPGHADYTYEQKYGLRDYRGGGRSSARETAMRVAAGAIAKKYLAEKFGIEIRGCLTQMGDIPLDIKDWSQVEQNPFFCPDPDKIDALDELMRALKKEGDSIGAKVTVVASGVPAGLGEPVFDRLDADIAHALMSINAVKGVEIGDGFDVVALRGSQNRDEITKDGFQSNHAGGILGGISSGQQIIAHMALKPTSSITVPGRTINRFGEEVEMITKGRHDPCVGIRAVPIAEAMLAIVLMDHLLRQRAQNADVKTDIPRW"
  total protein half-life in vivo / h: 12
- sequenceInput: "MRTVLNILNFVLGGFATTLGWLLATLVSIVLIFTLPLTRSCWEITKLSLVPYGNEAIHVDELNPAGKNVLLNTGGTVLNIFWLIFFGWWLCLMHIATGIAQCISIIGIPVGIANFKIAAIALWPVGRRVVSVETAQAAREANARRRFE [P0AB12]"
  total protein half-life in vivo / h: 12.5
- sequenceInput: "MSHRDTLFSAPIARLGDWTFDERVAEVFPDMIQRSVPGYSNIISMIGMLAERFVQPGTQVYDLGCSLGAATLSVRRNIHHDNCKIIAIDNSPAMIERCRRHIDAYKAPTPVDVIEGDIRDIAIENASMVVLNFTLQFLEPSERQALLDKIYQGLNPGGALVLSEKFSFEDAKVGELLFNMHHDFKRANGYSELEISQKRSMLENVMLTDSVETHKARLHNAGFEHSELWFQCFNFGSLVALKAEDAA"
  total protein half-life in vivo / h: 6.64
- sequenceInput: "MNLSTKQKQHLKGLAHPLKPVVLLGSNGLTEGVLAEIEQALEHHELIKVKIATEDRETKTLIVEAIVRETGACNVQVIGKTLVLYRPTKERKISLPR [P0AGK4]"
  total protein half-life in vivo / h: 9.46

Can you look up the measured total protein half-life in vivo of MPTKPPYPREAYIVTIEKGKPGQTVTWYQLRADHPKPDSLISEHPTAQEAMDAKKRYEDPDKE [P0AAN5] for me?
7.61

Quick one: MINDIKWVQAQRKATDWRQAVEIATRPLVAYGAAQPCYVNGIIENTLNWGPYYLIAPGIALPHARPEQGANYNQVSITTLRTPVAFGNEECDPVWLLLCVSATDANAHILTIQRISQFIDSPQRLTAVGNASTDDALFALVSG
6.74

Quick one: MTLDLPRRFPWPTLLSVCIHGAVVAGLLYTSVHQVIELPAPAQPISVTMVTPADLEPPQAVQPPPEPVVEPEPEPEPIPEPPKEAPVVIEKPKPKPKPKPKPVKKVQEQPKRDVKPVESRPASPFENTAPARLTSSTATAATSKPVTSVASGPRALSRNQPQYPARAQALRIEGQVKVKFDVTPDGRVDNVQILSAKPANMFEREVKNAMRRWRYEPGKPGSGIVVNILFKINGTTEIQ
5.81

Quick one: MKVAKDLVVSLAYQVRTEDGVLVDESPVSAPLDYLHGHGSLISGLETALEGHEVGDKFDVAVGANDAYGQYDENLVQRVPKDVFMGVDELQVGMRFLAETDQGPVPVEITAVEDDHVVVDGNHMLAGQNLKFNVEVVAIREATEEELAHGHVHGAHDHHHDHDHDGCCGGHGHDHGHEHGGEGCCGGKGNGGCGCH [P0A9K9]
8.14

Quick one: MKLKNTLLASALLSAMAFSVNAATELTPEQAAAVKPFDRVVVTGRFNAIGEAVKAVSRRADKEGAASFYVVDTSDFGNSGNWRVVADLYKADAEKAEETSNRVINGVVELPKDQAVLIEPFDTVTVQGFYRSQPEVNDAITKAAKAKGAYSFYIVRQIDANQGGNQRITAFIYKKDAKKRIVQSPDVIPADSEAGRAALAAGGEAAKKVEIPGVATTASPSSEVGRFFETQSSKGGRYTVTLPDGTKVEELNKATAAMMVPFDSIKFSGNYGNMTEVSYQVAKRAAKKGAKYYHITRQWQERGNNLTVSADLYK
10.5

Quick one: MVTSCTGHVLDNQRATTRGVFSSGSHLVTLHFQPHPFFSCVTDAVNGARSRFSAFYPKANYGLQGSQPSDVRAHNRAANGACDEYKQLKVLSMGRQKAVIKARREAKRVLRRDSRSHKQREEESVTSLVQMGGVEAIGMARDSRDTSPILARNEAQLHYLKAIESKQLIFATGEAGCGKTWISAAKAAEALIHKDVDRIIVTRPVLQADEDLGFLPGDIAEKFAPYFRPVYDVLVRRLGASFMQYCLRPEIGKVEIAPFAYMRGRTFENAVVILDEAQNVTAAQMKMFLTRLGENVTVIVNGDITQCDLPRGVCSGLSDALERFEEDEMVGIVRFGKEDCVRSALCQRTLHAYS [P0A9K1]
0.864
